# pEC50 listing for each entry below
Tested on: HMPV clinical isolate TN/1501/A1
assay-summary: HMPV antiviral assay Method-B (clinical isolate TN/1501/A1 in LLC-MK2 cells, ATP-Lite readout)
Type: cell-based, Human metapneumovirus (HMPV)
measurement-conditions: human metapneumovirus, LLC-MK2, 144 h, hMPV WT1501 (clinical isolate TN/1501/A1), 6 days
pEC50: −log10 of the molar value.

Known results for molecules:
COc1cc(C(=O)NC[C@](O)(c2cc3c(c(-c4cccc(Cl)c4F)n2)OC[C@]3(C)C(N)=O)C(F)(F)F)cc2cn(C3CC3)nc12	> 6.30
COc1cc(C(=O)NC[C@](O)(c2cc3c(c(-c4ccc(F)c(Cl)c4)n2)OC[C@@]3(C(N)=O)C(F)F)C(F)(F)F)cc2sc(C3CC3)nc12	> 6.30
COc1cc(C(=O)NC[C@](O)(c2cc3c(c(-c4ccc(F)cc4)n2)OC[C@]3(C)C(N)=O)C2(F)CC2)cc2cc(C3CC3)nn12	> 6.30

Notebook: COc1cc(C(=O)NC[C@](O)(c2cc3c(c(-c4cc(Br)c(F)cc4F)n2)OC[C@]3(C)C(N)=O)C2CC2)cc2cn(C3(F)CC3)nc12 , pEC50 read as > 6.30

get_value(item= COc1cc(C(=O)NC[C@](O)(c2nc(-c3ccc(F)cc3)c3c(c2F)[C@](C)(C(N)=O)CO3)C(F)(F)F)cc2cn(C3CC3)nc12 , readout=pEC50) returns < 6.30

Reported pEC50 ( COc1cc(C(=O)NC[C@](O)(c2cc3c(c(-c4ccc5c(c4)OC(F)(F)O5)n2)OC[C@]3(C(N)=O)C(F)F)C(F)(F)F)cc2cc(Cl)c(C)nc12 ) = < 6.30

// field: pEC50; key: COc1cc(C(=O)NC[C@](O)(c2cc3c(c(-c4ccc(F)c(F)c4Cl)n2)OC[C@]3(C)C(N)=O)C2CC2)cc2cn(C(F)F)nc12 ; value = > 6.30

Record COc1cc(C(=O)NC[C@](O)(c2cc3c(c(-c4csc(C(F)F)c4)n2)OC[C@]3(C)C(N)=O)C(F)(F)F)cc2cn(C3CC3)nc12 , field pEC50: < 6.30

So, C[C@]1(C(N)=O)COc2c1cc([C@@](O)(CNC(=O)c1cc(F)c3nn(C4CC4)cc3c1)C1CC1)nc2-c1ccc2c(c1)OC(F)(F)O2 ? Its pEC50 was > 6.30

// recorded pEC50 for COc1cc(C(=O)NC[C@](O)(c2cc3c(c(-c4ccc(F)c(Cl)c4)n2)OC[C@]3(C)C(N)=O)C2(F)CC2)cc2cc(Cl)c(C)nc12 : > 6.30

Documented pEC50 of COc1cc(C(=O)NC[C@](O)(c2cc3c(c(-c4cc(Cl)c(F)c(Cl)c4)n2)OC[C@]3(C)C(N)=O)C2CC2)cc2cn(C3CC3)nc12 : > 6.30

Measured pEC50 of COc1cc(C(=O)NC[C@](O)(c2cc3c(c(-c4ccc(F)c(Cl)c4F)n2)OC[C@]3(C)C(N)=O)C(F)(F)F)cc2cn(C(F)F)nc12 : > 6.30

// pEC50 lookup, molecule = COc1cc(C(=O)NC[C@](O)(c2cc3c(c(-c4cc(Cl)c(F)c(Cl)c4)n2)OC[C@]3(C)C(N)=O)C(F)(F)F)cc2cc(Br)cnc12 , result: < 6.30

Record summary for COc1cc(C(=O)NC[C@](O)(c2cc3c(c(-c4ccc5c(c4)OCO5)n2)OC[C@]3(C)C(N)=O)C(F)(F)F)cc2cn(C3CC3)nc12 : reported pEC50 = > 6.30

C[C@]1(C(N)=O)COc2c1cc([C@@](O)(CNC(=O)c1ccc3nn(C4CC4)cc3c1)C(F)(F)F)nc2-c1ccc2c(c1)OC(F)(F)O2 yielded pEC50 of > 6.30

Numbers sourced from patent US12612412B2.
